procedure details: Clearance in rat at 1.2 mg/kg, iv
Format: ADME, organism-based
Set-up: dose 1.2 mg/kg, route intravenous
test context: in vivo
parameter measured: clearance (mL/min/kg)

line notation: FC(F)(F)c1ccnc(N2CC[C@H]3CNC[C@H]32)n1
readout value: 6.71

---

subject of test: 5-hydroxytryptamine receptor 2B (Homo sapiens)
Sequence (P41595 whole entry): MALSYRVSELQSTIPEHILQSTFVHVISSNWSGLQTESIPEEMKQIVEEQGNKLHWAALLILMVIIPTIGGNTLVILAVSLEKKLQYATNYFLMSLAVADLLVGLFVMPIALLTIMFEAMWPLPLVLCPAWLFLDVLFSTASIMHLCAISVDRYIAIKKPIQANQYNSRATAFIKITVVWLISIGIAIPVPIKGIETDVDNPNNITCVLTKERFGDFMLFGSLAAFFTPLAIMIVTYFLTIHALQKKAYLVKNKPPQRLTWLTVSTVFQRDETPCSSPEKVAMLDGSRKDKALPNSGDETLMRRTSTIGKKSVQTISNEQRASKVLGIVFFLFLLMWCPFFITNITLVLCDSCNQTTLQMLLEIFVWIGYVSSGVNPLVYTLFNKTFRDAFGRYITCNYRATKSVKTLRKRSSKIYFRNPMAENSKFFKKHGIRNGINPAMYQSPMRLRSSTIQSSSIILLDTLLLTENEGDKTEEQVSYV
procedure details: Induction of 5HT2B receptor mediated increase in intracellular calcium concentration in CHO cells
Threshold-based label: EC50 under 100 nM gives fulfilled, EC50 not under 100 nM gives not fulfilled.

molecule: Clc1cccc(N2CC[C@H]3CNC[C@H]32)c1
qualitative label: fulfilled
//
molecule: C[C@H]1C[C@H]2CNC[C@H]2N1c1nccc(C(F)(F)F)n1
qualitative label: not fulfilled
//
molecule: FC(F)(F)c1ccnc(N2CC[C@H]3CNC[C@H]32)n1
qualitative label: fulfilled
//
molecule: C[C@@H]1C[C@H]2CNC[C@H]2N1c1nccc(C(F)(F)F)n1
qualitative label: fulfilled
//
molecule: FC(F)(F)c1ccnc(N2CCC3CNCC32)n1 (racemic)
qualitative label: not fulfilled
//
molecule: FC(F)(F)c1cccc(N2CC[C@H]3CNC[C@H]32)c1
qualitative label: fulfilled
//
molecule: FC(F)(F)c1cccc([C@H]2CC[C@H]3CNC[C@H]32)c1
qualitative label: not fulfilled
//
molecule: Fc1cccc(N2CC[C@H]3CNC[C@H]32)c1
qualitative label: not fulfilled
